Biological target: T1, L-selectin LE-His (monomeric, lectin and EGF-like domains) (human, UniProt P14151 39-194)
T1 sequence: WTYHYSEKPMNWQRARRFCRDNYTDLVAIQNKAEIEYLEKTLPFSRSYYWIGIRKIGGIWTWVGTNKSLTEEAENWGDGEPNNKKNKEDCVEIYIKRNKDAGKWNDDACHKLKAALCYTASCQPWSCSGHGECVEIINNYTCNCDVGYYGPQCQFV
Test: SPR (single cycle kinetics); 1 mM CaCl2; protein in cell culture supernatant; abstract gives ~12 nM; SPR: HBS-Ca (20 mM HEPES pH 7.5, 150 mM NaCl, 1 mM CaCl2), Biacore X100, temperature not stated; column: PBS with 0.9 mM CaCl2 and 0.5 mM MgCl2, room temperature
Settings: protein: recombinant; tags: C-terminal His; label: 5' biotin
measuredAttribute: Kd (nM)
The reply should contain only the number, in nM.

Qu. For the binder shown here, GCCAGTACAAGGTGCTAAACGTAATGGC (structured_DNA) [LD201mΔ1] , give the reported Kd.
Ans. 11.2
